Target: α4β7 integrin (Homo sapiens (Human), UniProt P13612+P26010)
Sequence (P13612 34-1032): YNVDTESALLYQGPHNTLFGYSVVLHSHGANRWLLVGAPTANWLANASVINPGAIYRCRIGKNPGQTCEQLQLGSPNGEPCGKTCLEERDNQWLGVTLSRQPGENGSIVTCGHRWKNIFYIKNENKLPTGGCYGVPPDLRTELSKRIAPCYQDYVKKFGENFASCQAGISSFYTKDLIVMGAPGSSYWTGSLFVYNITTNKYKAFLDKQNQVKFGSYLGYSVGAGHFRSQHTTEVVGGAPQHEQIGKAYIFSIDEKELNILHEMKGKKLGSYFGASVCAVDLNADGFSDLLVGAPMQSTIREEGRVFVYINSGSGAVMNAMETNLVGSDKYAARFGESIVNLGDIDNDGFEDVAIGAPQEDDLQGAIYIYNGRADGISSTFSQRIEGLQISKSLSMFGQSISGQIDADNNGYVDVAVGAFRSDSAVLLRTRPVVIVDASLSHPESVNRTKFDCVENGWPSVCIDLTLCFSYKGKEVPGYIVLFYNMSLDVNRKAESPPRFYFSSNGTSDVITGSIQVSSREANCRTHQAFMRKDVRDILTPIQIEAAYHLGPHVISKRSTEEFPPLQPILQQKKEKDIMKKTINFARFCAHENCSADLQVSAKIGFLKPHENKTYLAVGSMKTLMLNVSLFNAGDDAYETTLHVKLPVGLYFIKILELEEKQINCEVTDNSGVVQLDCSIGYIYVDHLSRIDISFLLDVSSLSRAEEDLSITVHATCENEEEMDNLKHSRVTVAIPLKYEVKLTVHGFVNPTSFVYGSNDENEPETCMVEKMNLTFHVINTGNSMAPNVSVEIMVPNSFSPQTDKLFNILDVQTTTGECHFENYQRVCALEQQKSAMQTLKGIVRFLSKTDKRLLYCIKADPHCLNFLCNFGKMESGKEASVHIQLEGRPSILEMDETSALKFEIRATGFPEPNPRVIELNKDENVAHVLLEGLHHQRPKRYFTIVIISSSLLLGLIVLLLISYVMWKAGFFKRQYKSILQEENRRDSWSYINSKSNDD
Sequence (P26010 20-798): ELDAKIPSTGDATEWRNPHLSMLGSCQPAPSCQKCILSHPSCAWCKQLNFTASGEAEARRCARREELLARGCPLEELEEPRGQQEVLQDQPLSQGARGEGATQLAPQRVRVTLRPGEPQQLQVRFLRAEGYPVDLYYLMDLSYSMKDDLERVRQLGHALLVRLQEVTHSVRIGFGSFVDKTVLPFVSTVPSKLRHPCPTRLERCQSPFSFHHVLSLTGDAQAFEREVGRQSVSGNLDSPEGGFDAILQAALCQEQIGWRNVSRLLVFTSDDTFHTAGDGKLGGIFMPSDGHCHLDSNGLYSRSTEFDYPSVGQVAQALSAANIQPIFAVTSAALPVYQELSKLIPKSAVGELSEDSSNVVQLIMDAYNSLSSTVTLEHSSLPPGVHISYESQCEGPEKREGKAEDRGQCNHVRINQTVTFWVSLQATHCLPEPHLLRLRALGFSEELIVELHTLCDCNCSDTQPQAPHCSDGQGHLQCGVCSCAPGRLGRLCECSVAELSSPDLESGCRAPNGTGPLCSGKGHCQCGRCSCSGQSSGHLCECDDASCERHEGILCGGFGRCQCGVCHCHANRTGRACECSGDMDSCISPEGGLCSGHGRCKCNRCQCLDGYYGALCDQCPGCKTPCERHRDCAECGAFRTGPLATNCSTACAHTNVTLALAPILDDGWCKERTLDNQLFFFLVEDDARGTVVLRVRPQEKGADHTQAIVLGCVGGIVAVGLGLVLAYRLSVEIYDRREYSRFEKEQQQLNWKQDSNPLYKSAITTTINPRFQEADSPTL
Assay: α4β7 Integrin Cell Capture Assay
Type: cell-based
Conditions: Table 2; capture of α4β7 expressing RPM18866 cells on MadCAM-1 extracellular domain-coated plate
I'd be grateful if you could share measured EC50 for these entries.
# unit: nM | format: bare number

# input molecule: N#Cc1ccc(-c2ccc(C[C@H](NC(=O)c3c(Cl)cc4nc[nH]c4c3Cl)C(=O)O)c3cccnc23)c(Cl)c1 ; wanted: its EC50 17.1

What about this molecule? N#Cc1ccc(-c2ccc(C[C@H](NC(=O)c3c(Cl)cc4[nH]ccc4c3Cl)C(=O)O)c3cccnc23)c(Cl)c1 34.3

What about this molecule? CC[C@@H](Nc1cc(F)c(C(=O)N[C@@H](Cc2ccc(-c3ncccc3N(C)C)c3ncccc23)C(=O)O)c(F)c1)C(F)(F)F 13.6

What about this molecule? O=C(N[C@@H](Cc1ccc(-c2ncc3c(n2)CCC3)c2ncccc12)C(=O)O)c1c(F)cc(N2CCOC[C@@H]2C(F)(F)F)cc1F 8.2

What about this molecule? CC[C@@H](Nc1cc(F)c(C(=O)N[C@@H](Cc2ccc(-c3nc(C)nc(C)c3C)c3ncccc23)C(=O)O)c(F)c1)C(F)(F)F 15.3

What about this molecule? O=C(N[C@@H](Cc1ccc(-c2c(Cl)cc(F)cc2Cl)c2ncccc12)C(=O)O)c1c(F)cc(N[C@H](c2ccccc2)C(F)(F)F)cc1F 26.8

---

Biological target: α4β7 integrin (Homo sapiens (Human), UniProt P13612+P26010)
Assay: α4β7 Integrin Cell Capture Assay
Assay type: cell-based
Conditions: Table 2; capture of α4β7 expressing RPM18866 cells on MadCAM-1 extracellular domain-coated plate
I'd be grateful if you could share measured EC50 for these entries.
# unit: nM | format: bare number

# input molecule: COc1cnn(C)c(=O)c1-c1ccc(C[C@H](NC(=O)c2c(F)cc(N[C@H](C)C(F)(F)F)cc2F)C(=O)O)c2cccnc12 [Example 207] ; wanted: its EC50 1.7

What about this molecule? N#Cc1ccc(-c2ccc(C[C@H](NC(=O)c3c(F)cc(NC(=O)c4ccccc4C(F)(F)F)cc3F)C(=O)O)c3cccnc23)c(Cl)c1 [Example 337] 26.2

What about this molecule? Cc1nc(-c2ccc(C[C@H](NC(=O)c3c(F)cc(N4CCOC[C@@H]4C(F)(F)F)cc3F)C(=O)O)c3cccnc23)ncc1F [Example 301] 9.4

What about this molecule? CC[C@@H](Nc1cc(F)c(C(=O)N[C@@H](Cc2ccc(-c3nc(N)ccc3C(F)(F)F)c3ncccc23)C(=O)O)c(F)c1)C(F)(F)F [Example 208] 1.8

What about this molecule? O=C(N[C@@H](Cc1ccc(NC(=O)c2c(Cl)cccc2Cl)c2ncccc12)C(=O)O)c1c(F)cccc1F [Example 239] 77.9

What about this molecule? Cc1cnc(-c2ccc(C[C@H](NC(=O)c3c(F)cc(N4CCOC[C@@H]4C(F)(F)F)cc3F)C(=O)O)c3cccnc23)c(N(C)C)c1 [Example 277] 5.2

What about this molecule? Cc1c(N)cc(-c2ccc(C[C@H](NC(=O)c3c(F)cc(N4CCOC[C@@H]4C(F)(F)F)cc3F)C(=O)O)c3cccnc23)c(=O)n1C [Example 273] 4.7

What about this molecule? Cc1cc(C(F)(F)F)c(-c2ccc(C[C@H](NC(=O)c3c(F)cc(N4CCCC[C@@H]4C(F)(F)F)cc3F)C(=O)O)c3cccnc23)c(=O)n1C (atropisomer, axis not shown) [Example 230] 2.2

What about this molecule? CC[C@@H](Nc1cc(F)c(C(=O)N[C@@H](Cc2ccc(-c3ncc(C)cc3C(F)(F)F)c3ncccc23)C(=O)O)c(F)c1)C(F)(F)F [Example 310] 12.3

What about this molecule? CC[C@@H](Nc1cc(F)c(C(=O)N[C@@H](Cc2ccc(-c3c(OC)ccn(C)c3=O)c3ncccc23)C(=O)O)c(F)c1)C(F)(F)F [Example 186] 1

What about this molecule? Cc1c(-c2ccc(C[C@H](NC(=O)c3c(F)cc(CS(=O)(=O)c4ccccc4)cc3F)C(=O)O)c3cccnc23)c(=O)n(C)c(=O)n1C [Example 203] 1.6

What about this molecule? Cc1nc(C)c(-c2ccc(C[C@H](NC(=O)c3c(F)cc(N4CCOC[C@@H]4C(F)(F)F)cc3F)C(=O)O)c3cccnc23)nc1C [Example 274] 4.8
